System: CD2F1 mice, L1210 leukemia ip, survival T/C
procedureDetails: NCI In Vivo Anticancer Drug Screen. Data for tumor model L1210 Leukemia (intraperitoneal) in CD2F1 (CDF1) mice
testParameters: endpoint: mean survival time; dose: 100.0 mg/kg/injection; schedule: Q01DX009 (ip); vehicle: saline sonified; higher = longer survival
Inconclusive results and toxic doses are left out.
measurementKind: T/C

[[record]]
itemsmiles = "O=C1c2ccccc2C(=O)c2c(O)c(Cc3cccnc3)cc(O)c21"
measurementkind = "T/C"
measvalue = "98 % of control"

[[record]]
itemsmiles = "Nc1cnc2nc(N)[nH]c(=O)c2c1"
measurementkind = "T/C"
measvalue = "97 % of control"

[[record]]
itemsmiles = "O=S(=O)(O)/[N+]([O-])=N/O"
measurementkind = "T/C"
measvalue = "103 % of control"


Let us examine a further case.
query: Quick one: T/C of Cc1cc(NC(=O)Nc2ccc(Cl)cc2)no1 ?
result: 96 % of control

====

Test system: CD2F1 mice, L1210 leukemia ip, survival T/C
procedureDetails: NCI In Vivo Anticancer Drug Screen. Data for tumor model L1210 Leukemia (intraperitoneal) in CD2F1 (CDF1) mice
testParameters: endpoint: mean survival time; dose: 100.0 mg/kg/injection; schedule: Q01DX005 (ip); vehicle: distilled water + Tween-80; higher = longer survival
Toxic doses and inconclusive results are not listed.
measurementKind: T/C

[[record]]
molecule = "CC1(C)OCC(C2OC(On3nnc4ccc(Cl)cc43)C3OC(C)(C)OC23)O1 (stereo not drawn)"
measurementkind = "T/C"
measvalue = "96 % of control"

[[record]]
molecule = "CC(=O)/C=C\\C1OC(n2ccc(=O)[nH]c2=O)C2OC(C)(C)OC12 (stereo not drawn)"
measurementkind = "T/C"
measvalue = "102 % of control"

[[record]]
molecule = "CCn1c(=O)c2nc(Br)n(C3OCC(OC(C)=O)C(OC(C)=O)C3OC(C)=O)c2n(CC)c1=O (stereo not drawn)"
measurementkind = "T/C"
measvalue = "93 % of control"

[[record]]
molecule = "CCOC(=O)CCCCCSc1nn(C2OC(COC(=O)c3ccccc3)C(OC(=O)c3ccccc3)C2OC(=O)c2ccccc2)c(=O)[nH]c1=O (stereo not drawn)"
measurementkind = "T/C"
measvalue = "106 % of control"

[[record]]
molecule = "CCOC(=O)CCCSc1n[nH]c(=O)[nH]c1=O"
measurementkind = "T/C"
measvalue = "91 % of control"

[[record]]
molecule = "Nc1ncnc2nc(C3COCCO3)[nH]c12 (stereo not drawn)"
measurementkind = "T/C"
measvalue = "96 % of control"

[[record]]
molecule = "Nc1nc2c(nc(NCc3ccccc3)n2C2OC(CO)C(O)C2O)c(=O)[nH]1 (stereo not drawn)"
measurementkind = "T/C"
measvalue = "90 % of control"


query: Quick one: T/C of Nc1nc(=O)n2ccn(C3OC(CO)C(O)C3O)c2n1 (stereo not drawn) ?
result: 100 % of control

====

System: CD2F1 mice, L1210 leukemia ip, survival T/C
procedureDetails: NCI In Vivo Anticancer Drug Screen. Data for tumor model L1210 Leukemia (intraperitoneal) in CD2F1 (CDF1) mice
testParameters: endpoint: mean survival time; dose: 50.0 mg/kg/injection; schedule: Q01DX005 (ip); vehicle: water
Inconclusive results and toxic doses are left out. How the source made its calls: active means survival T/C of 150% or more; inactive means T/C below 125% in these data.
Your reply should match one of these outcome classes. YES for active, NO for inactive

[[record]]
compound = "NC(=O)c1csc(NC2OC(CO)C(O)C(O)C2O)n1 (centres undefined)"
tgt = "CD2F1 mice, L1210 leukemia ip, survival T/C"
classassignment = "NO"

[[record]]
compound = "NC(=O)c1csc(C2OC(CO)C(O)C2O)n1 (centres undefined)"
tgt = "CD2F1 mice, L1210 leukemia ip, survival T/C"
classassignment = "YES"

[[record]]
compound = "NC(=O)c1n[nH]c(C2CC(O)C(CO)O2)n1 (centres undefined)"
tgt = "CD2F1 mice, L1210 leukemia ip, survival T/C"
classassignment = "NO"


query: Record lookup: outcome of this test for NC(=O)c1nc(C2OC(CO)C(O)C2O)no1 (centres undefined) ?
result: NO
